Tested on: NF-κB activation in HEK293T pGF NF-κB cells
assay-info: TNF-α induced NF-κB activation assay
Assay type: cell-based
measurement-parameters: Homo sapiens, HEK-293T; NFκB activation assay; ± SD; read-out: pEC50 (converted)
Each record here notes measured EC50.
measurement-name: EC50 (µM)

INSERT INTO assay_data (smiles_data, cmp, reported_measurement) VALUES
  ('Cc1[nH]c(Br)nc1-c1ccc(CC(=O)Nc2noc3c2CCCC3)cc1', '=', 11.5),
  ('Cc1nc(-c2ccc(CC(=O)Nc3noc4c3CCCC4)cc2)c(C)[nH]1', '=', 19.1),
  ('O=C(Cc1ccc(-n2ncc3c2CCNC3)cc1)Nc1noc2c1CCCC2', '>', 31.6),
  ('Cc1nc(-c2ccc(CC(=O)Nc3noc4c3CCCC4)c(C)c2)c(C)[nH]1', '=', 10.5),
  ('Cc1nn(-c2ccc(CC(=O)Nc3noc4c3CCCC4)cc2)c2ccc(N)cc12', '=', 6.61),
  ('Nc1nn(-c2ccc(CC(=O)Nc3noc4c3CCCC4)cc2)c2ccccc12', '=', 10),
  ('Cc1cc(C)n(-c2ccc(CC(=O)Nc3noc4c3CCCC4)cc2)n1', '=', 35.5),
  ('O=C(Cc1ccc(-n2ncc3c2CNCC3)cc1)Nc1noc2c1CCCC2', '=', 13.2),
  ('Cc1nc(-c2ccc(CC(=O)Nc3noc4c3CCCC4)nc2)c(C)[nH]1', '=', 28.2),
  ('Cc1cc(C)n(-c2cc(F)c(CC(=O)Nc3noc4c3CCCC4)c(F)c2)n1', '=', 11.2);

---

System: HCT116 cells
assay-info: Cancer cell viability assay (resazurin), HCT116
Assay type: cell-based
measurement-parameters: HCT116, 100 μM, two independent experiments; 100 µM
measurement-name: percentage cell viability (%)

INSERT INTO measurements (compound, display_unit, reported_measurement) VALUES
  ('Cc1nc(-c2ccc(CC(=O)Nc3noc4c3CCCC4)cc2F)c(C)[nH]1 [compound 18]', '%', 53.92),
  ('Cc1[nH]c(Br)nc1-c1ccc(CC(=O)Nc2noc3c2CCCC3)cc1 [compound 21]', '%', 47.52),
  ('Cc1nc(-c2ccc(CC(=O)Nc3noc4c3CCCC4)c(F)c2)c(C)[nH]1 [compound 20]', '%', 15.72),
  ('Nc1nn(-c2ccc(CC(=O)Nc3noc4c3CCCC4)cc2)c2ccccc12 [compound 11]', '%', 20.29),
  ('Cc1cc(C2CC2)n(-c2ccc(CC(=O)Nc3noc4c3CCCC4)cc2)n1 [compound 9]', '%', 86.44),
  ('O=C(Cc1ccc(-n2nc(Cl)c3ccccc32)cc1)Nc1noc2c1CCCC2 [compound 12]', '%', 2.49);
